Reference for the values: ChEMBL document CHEMBL1154468

Test system: Staphylococcus aureus
Assay explanation: Antibacterial activity against Staphylococcus aureus K1758-P by broth microdilution technique
Format: functional
Endpoint: MIC (µg/mL)
Report as a plain number; the unit µg/mL is understood.

stdin: Name the reported MIC value associated with the molecule NCCC[C@@H](NC(=O)[C@@H](N)Cc1ccccc1)C(=O)N1CCN(c2cc3c(cc2F)c(=O)c(C(=O)O)cn3C2CC2)CC1
stdout: 10

stdin: Given CC1COc2c(N3CCN(C)CC3)c(F)cc3c(=O)c(C(=O)O)cn1c23 (stereo unspecified) , state its recorded MIC.
stdout: 0.63

stdin: # lookup: MIC of O=C(O)c1cn(C2CC2)c2cc(N3CCNCC3)c(F)cc2c1=O
stdout: 0.16

stdin: # query: MIC of entry O=C(Nc1ccccc1)Nc1ccc(CN2CCN(c3cc4c(cc3F)c(=O)c(C(=O)O)cn4C3CC3)CC2)cc1
stdout: 0.63
